- experiment: Cytotoxicity against HIV1 3B infected in human MT4 cells by MTT assay
- Format: cell-based
- conditionParameters: MT4 cells infected with HIV1 3B
# note: exactly 30 µM is not below, so it is no (0); use yes (1) for CC50 strictly under it

{"compoundSmiles": "O=C(CSc1nccnc1-c1ccccc1Cl)Nc1ccc(Cl)cc1Br", "groupLabel": "yes (1)"}
{"compoundSmiles": "Cc1cn([C@H]2C[C@H](N=[N+]=[N-])[C@@H](CO)O2)c(=O)[nH]c1=O", "groupLabel": "no (0)"}
{"compoundSmiles": "O=C(CSc1nccnc1-c1ccccc1Cl)N1CCCc2ccccc21", "groupLabel": "no (0)"}
{"compoundSmiles": "O=C(CSc1nccnc1-c1ccccc1Cl)Nc1ccccc1Cl", "groupLabel": "no (0)"}
{"compoundSmiles": "O=C(CSc1nccnc1-c1ccccc1Cl)Nc1ccccc1", "groupLabel": "no (0)"}
